- SYSTEM: T1, Macaca fascicularis (mf) RET.mmh (Macaca fascicularis)
- T1 construct: also called monkey RET
- T1 chain: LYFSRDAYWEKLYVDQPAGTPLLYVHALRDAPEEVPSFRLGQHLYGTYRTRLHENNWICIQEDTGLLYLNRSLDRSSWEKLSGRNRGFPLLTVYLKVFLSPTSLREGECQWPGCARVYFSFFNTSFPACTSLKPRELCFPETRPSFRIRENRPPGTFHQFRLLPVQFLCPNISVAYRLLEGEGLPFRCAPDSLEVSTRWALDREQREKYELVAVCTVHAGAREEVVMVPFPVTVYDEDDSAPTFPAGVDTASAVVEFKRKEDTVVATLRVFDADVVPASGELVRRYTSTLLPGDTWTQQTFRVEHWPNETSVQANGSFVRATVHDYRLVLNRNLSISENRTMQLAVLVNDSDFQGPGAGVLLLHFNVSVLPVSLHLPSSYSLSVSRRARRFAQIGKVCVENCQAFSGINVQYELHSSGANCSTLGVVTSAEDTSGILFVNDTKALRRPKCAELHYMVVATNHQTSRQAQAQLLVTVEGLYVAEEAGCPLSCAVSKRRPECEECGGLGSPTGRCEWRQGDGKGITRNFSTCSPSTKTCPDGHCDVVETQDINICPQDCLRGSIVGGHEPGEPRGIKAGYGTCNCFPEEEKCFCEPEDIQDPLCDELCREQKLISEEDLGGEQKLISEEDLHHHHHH
- PROTOCOL DETAILS: SPR Biacore T200, mAb capture, 25 C
TEST READOUT: kon (M⁻¹ s⁻¹)
Just the number please, in M⁻¹ s⁻¹, no unit attached.

{"BINDER": "H4H8067P (antibody, human IgG4, V domains shown, human IgG4 Fc (H4H prefix)) VH: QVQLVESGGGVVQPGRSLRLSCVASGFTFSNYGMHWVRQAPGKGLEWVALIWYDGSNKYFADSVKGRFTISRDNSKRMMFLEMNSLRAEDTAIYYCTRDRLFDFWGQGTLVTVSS VL: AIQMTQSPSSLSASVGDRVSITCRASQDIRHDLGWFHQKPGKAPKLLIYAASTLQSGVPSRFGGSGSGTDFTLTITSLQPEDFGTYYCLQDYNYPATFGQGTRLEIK", "kon [M⁻¹ s⁻¹]": 108000}

Given H4H8060P (antibody, human IgG4, V domains shown, human IgG4 Fc (H4H prefix)) VH: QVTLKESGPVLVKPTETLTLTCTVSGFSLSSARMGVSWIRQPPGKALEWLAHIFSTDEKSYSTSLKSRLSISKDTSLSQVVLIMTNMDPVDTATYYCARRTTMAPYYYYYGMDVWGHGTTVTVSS VL: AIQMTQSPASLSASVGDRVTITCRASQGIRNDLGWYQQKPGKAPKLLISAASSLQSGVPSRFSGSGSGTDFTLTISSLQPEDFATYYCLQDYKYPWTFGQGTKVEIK , respond with its kon.
751000

Recall and state the measured kon for H4H8083P (antibody, human IgG4, V domains shown, human IgG4 Fc (H4H prefix)) VH: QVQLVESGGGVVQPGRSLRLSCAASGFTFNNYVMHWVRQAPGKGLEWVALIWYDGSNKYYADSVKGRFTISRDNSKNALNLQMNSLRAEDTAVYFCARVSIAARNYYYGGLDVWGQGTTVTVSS VL: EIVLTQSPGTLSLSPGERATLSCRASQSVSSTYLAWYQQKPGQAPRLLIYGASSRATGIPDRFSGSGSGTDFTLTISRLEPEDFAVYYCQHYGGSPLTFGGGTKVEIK .
207000

Input H4H8076P (antibody, human IgG4, V domains shown, human IgG4 Fc (H4H prefix)) VH: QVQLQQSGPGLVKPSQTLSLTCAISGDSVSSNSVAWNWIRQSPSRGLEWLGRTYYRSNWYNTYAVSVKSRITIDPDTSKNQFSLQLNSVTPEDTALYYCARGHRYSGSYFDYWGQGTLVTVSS VL: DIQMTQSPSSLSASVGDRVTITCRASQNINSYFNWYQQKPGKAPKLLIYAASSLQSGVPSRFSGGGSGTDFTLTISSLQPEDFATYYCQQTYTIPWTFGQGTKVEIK , output reported kon.
212000

Give the reported kon for this binder. H4H8071P (antibody, human IgG4, V domains shown, human IgG4 Fc (H4H prefix)) VH: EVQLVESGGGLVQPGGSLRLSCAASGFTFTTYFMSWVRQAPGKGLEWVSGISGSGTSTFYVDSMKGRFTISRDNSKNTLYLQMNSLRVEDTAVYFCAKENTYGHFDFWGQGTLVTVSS VL: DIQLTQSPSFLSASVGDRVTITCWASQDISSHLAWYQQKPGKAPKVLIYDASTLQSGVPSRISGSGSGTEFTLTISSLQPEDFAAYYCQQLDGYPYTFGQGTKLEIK
117000

Numbers sourced from patent US20220185900A1.
